Source listed as the supplement of paper PMC9112550.

# Test system: Escherichia coli TOP10
# methodDescription: shrunken log2 fold change of peptide-encoding DNA abundance (4.5 h post-induction vs induction); higher = less antimicrobial activity (less host growth inhibition)
# details: time post-induction: 4.5 h; library: site-saturation at positions 5, 18, 19, 20
reportedProperty: shrunken log2 fold change
# respond with the number and nothing more

Record excerpt, results attached:
- seqString: "RRIRTRPPRLPRPRPRPVMTPRP"
  shrunken log2 fold change: -0.14
- seqString: "RRIRGRPPRLPRPRPRPFAKPRP"
  shrunken log2 fold change: 0.479

Need shrunken log2 fold change, item "RRIRERPPRLPRPRPRPKVHPRP" -0.196

Need shrunken log2 fold change, item "RRIRTRPPRLPRPRPRPKHDPRP" -0.099

Need shrunken log2 fold change, item "RRIRFRPPRLPRPRPRPYLDPRP" -0.26

Need shrunken log2 fold change, item "RRIRIRPPRLPRPRPRPSWWPRP" -0.059

Need shrunken log2 fold change, item "RRIRDRPPRLPRPRPRPYHCPRP" -0.00783

Need shrunken log2 fold change, item "RRIRARPPRLPRPRPRPNQPPRP" 0.0397

Need shrunken log2 fold change, item "RRIRWRPPRLPRPRPRPEFFPRP" 0.54

Need shrunken log2 fold change, item "RRIRVRPPRLPRPRPRPWVPPRP" -0.101

Need shrunken log2 fold change, item "RRIRSRPPRLPRPRPRPQCDPRP" -0.193

Need shrunken log2 fold change, item "RRIRGRPPRLPRPRPRPLRHPRP" 1.34

Need shrunken log2 fold change, item "RRIRHRPPRLPRPRPRPLCNPRP" -0.337

Need shrunken log2 fold change, item "RRIRIRPPRLPRPRPRPMQQPRP" 0.0184

Need shrunken log2 fold change, item "RRIRVRPPRLPRPRPRPTTPPRP" 0.347

Need shrunken log2 fold change, item "RRIRCRPPRLPRPRPRPPCSPRP" -0.315

Need shrunken log2 fold change, item "RRIRLRPPRLPRPRPRPRASPRP" 0.516

Need shrunken log2 fold change, item "RRIRKRPPRLPRPRPRPEDVPRP" -0.04

Need shrunken log2 fold change, item "RRIRLRPPRLPRPRPRPVWWPRP" 0.88

Need shrunken log2 fold change, item "RRIRRRPPRLPRPRPRPMEYPRP" -0.0405

Need shrunken log2 fold change, item "RRIRNRPPRLPRPRPRPRVNPRP" -0.0734

* * *

# Tested on: Escherichia coli TOP10
# methodDescription: shrunken log2 fold change of peptide-encoding DNA abundance (4.5 h post-induction vs induction); higher = less antimicrobial activity (less host growth inhibition)
# details: time post-induction: 4.5 h; library: site-saturation at positions 5, 18, 19, 20
Values of shrunken log2 fold change greater than or equal to -0.1 map to fulfilled; values below map to not fulfilled.

Recorded results for 3 sequences are shown here.
- seqString: "RRIRQRPPRLPRPRPRPWVRPRP"
  answerLabel: "not fulfilled"
- seqString: "RRIRIRPPRLPRPRPRPGHWPRP"
  answerLabel: "fulfilled"
- seqString: "RRIRLRPPRLPRPRPRPAYGPRP"
  answerLabel: "fulfilled"

Could you now consider this next sequence?
Is shrunken log2 fold change for "RRIRRRPPRLPRPRPRPKHSPRP" at or above -0.1? fulfilled

* * *

# Tested on: Escherichia coli TOP10;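 note: peptides expressed intracellularly from a pBAD plasmid library in pooled LB shake-flask culture, induced with 0.3% L-arabinose, DNA abundance read by NGS, three biological replicates, DESeq2 with apeglm shrinkage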
# methodDescription: shrunken log2 fold change of peptide-encoding DNA abundance (4.5 h post-induction vs induction); higher = less antimicrobial activity (less host growth inhibition)
# details: time post-induction: 4.5 h; library: site-saturation at positions 5, 18, 19, 20
Catalogue of sequences with associated shrunken log2 fold change
# respond with the number and nothing more

Record excerpt, results attached:
- seqString: "RRIRSRPPRLPRPRPRPACQPRP"
  observedMeasurement: 0.0147
- seqString: "RRIRCRPPRLPRPRPRPNWGPRP"
  observedMeasurement: -0.0514
- seqString: "RRIRVRPPRLPRPRPRPTDFPRP"
  observedMeasurement: -0.0704
- seqString: "RRIRYRPPRLPRPRPRPLTHPRP"
  observedMeasurement: -0.845
- seqString: "RRIRIRPPRLPRPRPRPVGDPRP"
  observedMeasurement: -0.0246

Please examine the following record next.
Need shrunken log2 fold change, item "RRIRWRPPRLPRPRPRPPWIPRP" 1.44
